molecular target: Single-strand selective monofunctional uracil DNA glycosylase (Homo sapiens) (UniProt Q53HV7); conditions: Compound Concentration 1.0 uM, Hit No;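 note: enzymatic SMUG1 assay coupled with APE1, reading fluorescence at 594 nm released when a quenched double-stranded DNA oligonucleotide substrate is cleaved and separated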
Sequence (Q53HV7 whole entry): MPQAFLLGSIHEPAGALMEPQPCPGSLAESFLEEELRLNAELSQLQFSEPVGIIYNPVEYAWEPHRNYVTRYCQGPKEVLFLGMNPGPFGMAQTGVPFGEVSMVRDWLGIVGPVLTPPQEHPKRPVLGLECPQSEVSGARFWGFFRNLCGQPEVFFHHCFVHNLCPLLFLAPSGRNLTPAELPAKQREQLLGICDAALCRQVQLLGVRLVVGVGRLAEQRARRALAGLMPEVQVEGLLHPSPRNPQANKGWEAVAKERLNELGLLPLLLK
Description: Inhibition of SMUG1 by quantifying inhibition of SMUG1-mediated cleavage and dissociation of quenched duplex DNA oligonucleotides, measured as fluorescence at 594 nm. To generate a functional strand incision and increase turn-over this assay is coupled to APE1.
# class assignment by measured inhibition: zone 1 = under 10%, zone 2 = from 10% up to 20%, zone 3 = 20% and over

Q) Exam item: assign O=C(Nc1ccc(-n2nc(-c3cccnc3)cc2C(F)(F)F)cn1)c1ccc(-c2ccccc2)c(F)c1 to the correct category.
A) zone 3

Q) Query COc1ccccc1Nc1nc(-c2nn(Cc3c(F)cc(OCCCO)cc3F)c3ccccc23)ncc1OC next
A) zone 2

Q) Param item: CCCOc1ccc([C@H]2[C@H](C(=O)O)[C@@H](c3ccc4c(c3)OCO4)CN2CC(=O)Nc2c(CC)cccc2CC)cc1
A) zone 3

Q) Now consider O=C(NCc1ncc(C(F)(F)F)cc1Cl)c1ccc2c(c1)C1(CCS(=O)(=O)CC1)[C@H](C1CC1)N2S(=O)(=O)c1ccc(F)cc1 .
A) zone 1

Q) Here is the next compound: CN(C)C(=O)/C(C#N)=C/c1ccc(-c2nc3cnc4[nH]ccc4c3n2C2CCCCC2)o1
A) zone 3

Q) Repeat for the following compound: Cc1cc(F)c(C(=O)Nc2cccc(-c3nncn3C(C)C)n2)cc1-n1cnc(C2CC2)c1
A) zone 2

Q) Next record, please: CN1CCN(c2ccc(OC(F)(F)F)c(Nc3ncc4c(n3)-c3c(c(C(N)=O)nn3CCO)CC4)c2)CC1
A) zone 2

Q) // next record Cc1cc(Nc2nccc(C)n2)cc(-c2cnc([C@@]3(O)CC[C@H](C(=O)O)C(C)(C)C3)s2)c1
A) zone 2

Q) Entry to check: O=C(NOC[C@H](O)CO)c1ccc(F)c(F)c1Nc1ccc(I)cc1F
A) zone 1

Q) Now this one: C[C@@H]1CN(c2cc(-c3nn(C)c4ccc(OC5(C)CC5)cc34)ncn2)C[C@H](C)O1
A) zone 1

Q) Next entry: c1ccc(-c2oc3ncnc(NC[C@@H]4CCCO4)c3c2-c2ccccc2)cc1
A) zone 3

Q) Next compound: Cn1cc(Cl)c2c(Oc3c(F)cc(Nc4cc(Cl)nc(N)n4)cc3F)ccnc21
A) zone 2

Q) Please give the result for CN1C(=O)[C@@H](N2CCc3c(nn(Cc4ccccc4)c3Br)C2=O)COc2ccccc21 too.
A) zone 1

Q) Also, CCOC(=O)c1c(/C(C#N)=C\N)c2ccc(Cl)c(Cl)c2n1C please.
A) zone 2

Q) What do you get for CCS(=O)(=O)c1cc2cc(C[C@@](O)(CC(C)(C)c3ccc(F)cc3C(N)=O)C(F)(F)F)[nH]c2cn1 ?
A) zone 1

Q) Next compound: CNC(=O)Nc1ccc2c(c1)[C@@]1(CC2)OC(=O)N(CC(=O)N(Cc2ccc(F)cc2)[C@@H](C)C(F)(F)F)C1=O
A) zone 3

The values you see were collected from ChEMBL document CHEMBL5665443.
